Target: Bcl-2 protein (Recombinant Human Bcl-2 Protein) (Homo sapiens)
Construct: purchased Novus NBP2-34889
Experiment: Binding evaluation of mixture library compounds to Bcl-2 using AS-MS (affinity selection mass spectrometry)
Settings: second value in parentheses; (A−C)/B×100; 1200-compound mixture, Bcl-2 20 μM
# binarize ASMS ratio (%): threshold 90% inclusive, high side criterion met, low side criterion not met

{"columns": ["Molecule", "Cat"],
 "data": [
  ["CCOc1cncc(-c2ccc(CN3CCN(c4ccc(C(=O)NS(=O)(=O)c5ccc(NCCSc6ccccc6)c(C(F)(F)F)c5)nn4)CC3)cc2C)c1", "criterion not met"],
  ["CCOc1cccc(-c2ccc(C(C)N3CCN(c4ccc(C(=O)NS(=O)(=O)c5ccc(NCCSc6ccccc6)c([N+](=O)[O-])c5)cc4)CC3)cc2)c1 (stereo not drawn)", "criterion met"],
  ["CCOc1cccc(-c2ccc(CN3CCN(c4ccc(C(=O)N(C)CC56CC7CC(CC(C7)C5)C6)nn4)CC3)cc2C)c1", "criterion not met"],
  ["CCOc1cccc(-c2ccc(CN3CCN(c4ccc(C(=O)NS(=O)(=O)c5ccc(NCCSc6ccccc6)c([N+](=O)[O-])c5)cc4)CC3)cc2C)c1", "criterion met"],
  ["CCOc1cncc(-c2ccc(CN3CCN(c4ccc(C(=O)NS(=O)(=O)c5ccc(NCCSc6ccccc6)c([N+](=O)[O-])c5)cc4)CC3)c3ccccc23)c1", "criterion not met"]
]}

* * *

Molecular target: Bcl-2 protein (Recombinant Human Bcl-2 Protein) (Homo sapiens, UniProt P10415)
Construct: purchased Novus NBP2-34889
Sequence (P10415 whole entry): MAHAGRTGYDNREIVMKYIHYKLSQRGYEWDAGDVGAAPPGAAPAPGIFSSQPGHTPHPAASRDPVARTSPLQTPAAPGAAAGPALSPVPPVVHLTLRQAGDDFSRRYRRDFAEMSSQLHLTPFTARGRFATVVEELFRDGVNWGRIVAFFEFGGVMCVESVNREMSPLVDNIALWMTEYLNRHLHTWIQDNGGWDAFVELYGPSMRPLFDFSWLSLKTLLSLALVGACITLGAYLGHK
Test: Binding evaluation of mixture library compounds to Bcl-2 using AS-MS (affinity selection mass spectrometry)
Conditions: n = 1
Measured ASMS ratio (%), listed per entry for reference.
Measurement type: ASMS ratio (%)

{"columns": ["Smiles str", "Unit of measurement", "Data value"],
 "data": [
  ["CCOc1cccc(-c2cnn(-c3cc(C(=O)N4CCN(c5ccc(C(=O)NS(=O)(=O)c6ccc(NCCSc7ccccc7)c(C(F)(F)F)c6)cc5)CC4)cc(C(F)(F)F)c3)c2)c1", "%", 3.4],
  ["CCOc1cccc(-c2cc(CN3CCN(c4ccc(C(=O)NS(=O)(=O)C(C)(C)C)cc4)CC3)cc(C(F)(F)F)c2)c1", "%", 4.6],
  ["CCOc1cncc(-c2csc(CN3CCN(c4ccc(C(=O)NS(=O)(=O)C(C)(C)C)cc4)CC3)c2)c1", "%", 0.0],
  ["CCOc1cncc(-c2ccc(C(=O)N3CCN(c4ccc(C(=O)NS(=O)(=O)C(C)(C)C)nn4)CC3)c3ccccc23)c1", "%", 0.3],
  ["CCOc1cccc(-c2ccc(C(=O)N3CCN(c4ccc(C(=O)NS(=O)(=O)C(C)(C)C)nn4)CC3)c3ccccc23)c1", "%", 0.0],
  ["CCOc1cncc(-c2cc(OC)c(CN3CCN(c4ccc(C(=O)NS(C)(=O)=O)cc4)CC3)c(OC)c2)c1", "%", 0.0]
]}

* * *

Molecular target: Bcl-2 protein (Recombinant Human Bcl-2 Protein) (Homo sapiens, UniProt P10415)
Construct: purchased Novus NBP2-34889
Assay: Binding evaluation of mixture library compounds to Bcl-2 using AS-MS (affinity selection mass spectrometry)
Settings: AS-MS, mixture of 1200 compounds, Bcl-2; ASMS Ratio(%)=(A−C)/B×100; replicate n = 1
Measured ASMS ratio (%) n = 1, listed per entry for reference.
Measurement type: ASMS ratio (%) n = 1

{"columns": ["Compound", "Measurement type", "Data value"],
 "data": [
  ["CCOc1cncc(-c2cnn(-c3cc(C(=O)N4CCN(c5ccc(C(=O)NCC(F)(F)F)cc5)CC4)cc(C(F)(F)F)c3)c2)c1", "ASMS ratio (%) n = 1", "2.6%"],
  ["CCOc1cccc(-c2cc(CN3CCN(c4ccc(C(=O)NCC(F)(F)F)cc4)CC3)cc(C(F)(F)F)c2)c1", "ASMS ratio (%) n = 1", "2.8%"],
  ["CCCNC(=O)c1ccc(N2CCN(Cc3cc(OC(C)C)cc(-c4cccc(OCC)c4)c3)CC2)cc1", "ASMS ratio (%) n = 1", "−2.4%"],
  ["CCOc1cncc(-c2cc(CN3CCN(c4ccc(C(=O)NCC56CC7CC(CC(C7)C5)C6)cc4)CC3)cc(OC(F)(F)F)c2)c1", "ASMS ratio (%) n = 1", "5.2%"],
  ["CCOc1cncc(-c2ccc(CN3CCN(c4ccc(C(=O)NCC56CC7CC(CC(C7)C5)C6)cc4)CC3)cc2F)c1", "ASMS ratio (%) n = 1", "4.2%"],
  ["CCOc1cccc(-c2ccc(C(=O)N3CCN(c4ccc(C(=O)NCC(F)(F)F)nn4)CC3)cc2F)c1", "ASMS ratio (%) n = 1", "−0.1%"],
  ["CCOc1cccc(-c2ccccc2CCC(=O)N2CCN(c3ccc(C(=O)NCC(F)(F)F)cc3)CC2)c1", "ASMS ratio (%) n = 1", "2.3%"],
  ["CCOc1cncc(-c2ccc(C(=O)N3CCN(c4ccc(C(=O)NCC(F)(F)F)cc4)CC3)c3ccccc23)c1", "ASMS ratio (%) n = 1", "1.1%"],
  ["CCOc1cncc(-c2cc(CN3CCN(c4ccc(C(=O)NCC56CC7CC(CC(C7)C5)C6)nn4)CC3)cc(OC(F)(F)F)c2)c1", "ASMS ratio (%) n = 1", "3.3%"],
  ["CCOc1cncc(-c2ccc(C(C)N3CCN(c4ccc(C(=O)NCC(F)(F)F)cc4)CC3)cc2)c1 (stereo not shown)", "ASMS ratio (%) n = 1", "−1.1%"],
  ["CCOc1cncc(-c2ccc(C(=O)N3CCN(c4ccc(C(=O)NCC(F)(F)F)cc4)CC3)cc2F)c1", "ASMS ratio (%) n = 1", "0.0%"],
  ["CCOc1cncc(-c2cnn(-c3cc(C(=O)N4CCN(c5ccc(C(=O)NCC67CC8CC(CC(C8)C6)C7)nn5)CC4)cc(C(F)(F)F)c3)c2)c1", "ASMS ratio (%) n = 1", "8.0%"],
  ["CCOc1cccc(-c2ccc(CN3CCN(c4ccc(C(=O)NCC56CC7CC(CC(C7)C5)C6)nn4)CC3)c3ccccc23)c1", "ASMS ratio (%) n = 1", "0.0%"],
  ["CCOc1cccc(C#Cc2ccccc2C(=O)N2CCN(c3ccc(C(=O)NCC(F)(F)F)nn3)CC2)c1", "ASMS ratio (%) n = 1", "0.0%"],
  ["CCOc1cccc(-c2csc(CN3CCN(c4ccc(C(=O)NCC56CC7CC(CC(C7)C5)C6)cc4)CC3)c2)c1", "ASMS ratio (%) n = 1", "3.6%"],
  ["CCOc1cncc(-c2csc(CN3CCN(c4ccc(C(=O)NCC(F)(F)F)cc4)CC3)c2)c1", "ASMS ratio (%) n = 1", "2.6%"],
  ["CCOc1cncc(-c2cc(CN3CCN(c4ccc(C(=O)NCC(F)(F)F)cc4)CC3)cc(OC(F)(F)F)c2)c1", "ASMS ratio (%) n = 1", "1.4%"],
  ["CCOc1cccc(-c2ccc(CN3CCN(c4ccc(C(=O)NCC56CC7CC(CC(C7)C5)C6)cc4)CC3)cc2C)c1", "ASMS ratio (%) n = 1", "3.2%"],
  ["CCOc1cncc(-c2ccc(CN3CCN(c4ccc(C(=O)NCC56CC7CC(CC(C7)C5)C6)nn4)CC3)c(OC)c2)c1", "ASMS ratio (%) n = 1", "3.4%"],
  ["CCOc1cncc(-c2ccc(CN3CCN(c4ccc(C(=O)NCC56CC7CC(CC(C7)C5)C6)nn4)CC3)cc2F)c1", "ASMS ratio (%) n = 1", "4.7%"],
  ["CCOc1cncc(-c2ccc(C(=O)N3CCN(c4ccc(C(=O)NCC56CC7CC(CC(C7)C5)C6)nn4)CC3)cc2C)c1", "ASMS ratio (%) n = 1", "−6.2%"],
  ["CCOc1cccc(-c2csc(C(=O)N3CCN(c4ccc(C(=O)NCC56CC7CC(CC(C7)C5)C6)cc4)CC3)c2)c1", "ASMS ratio (%) n = 1", "4.0%"],
  ["CCOc1cccc(-c2cc(CN3CCN(c4ccc(C(=O)NCC56CC7CC(CC(C7)C5)C6)cc4)CC3)cc(C(F)(F)F)c2)c1", "ASMS ratio (%) n = 1", "5.3%"],
  ["CCOc1cccc(-c2csc(C(=O)N3CCN(c4ccc(C(=O)NCC(F)(F)F)cc4)CC3)c2)c1", "ASMS ratio (%) n = 1", "4.3%"],
  ["CCOc1cccc(-c2ccccc2CN2CCN(c3ccc(C(=O)NCC45CC6CC(CC(C6)C4)C5)cc3)CC2)c1", "ASMS ratio (%) n = 1", "1.1%"],
  ["CCOc1cccc(-c2cc(CN3CCN(c4ccc(C(=O)NCC(F)(F)F)nn4)CC3)cc(OC(C)C)c2)c1", "ASMS ratio (%) n = 1", "0.0%"],
  ["CCCNC(=O)c1ccc(N2CCN(Cc3ccccc3C#Cc3cccc(OCC)c3)CC2)cc1", "ASMS ratio (%) n = 1", "27.6%"],
  ["CCOc1cncc(-c2ccc(CN3CCN(c4ccc(C(=O)NCC(F)(F)F)nn4)CC3)cc2C)c1", "ASMS ratio (%) n = 1", "0.0%"]
]}
